- experimental target: human truncated cGAS enzyme (147-522 human cGAS) (Homo sapiens (Human), UniProt Q8N884)
- Sequence (Q8N884 147-522): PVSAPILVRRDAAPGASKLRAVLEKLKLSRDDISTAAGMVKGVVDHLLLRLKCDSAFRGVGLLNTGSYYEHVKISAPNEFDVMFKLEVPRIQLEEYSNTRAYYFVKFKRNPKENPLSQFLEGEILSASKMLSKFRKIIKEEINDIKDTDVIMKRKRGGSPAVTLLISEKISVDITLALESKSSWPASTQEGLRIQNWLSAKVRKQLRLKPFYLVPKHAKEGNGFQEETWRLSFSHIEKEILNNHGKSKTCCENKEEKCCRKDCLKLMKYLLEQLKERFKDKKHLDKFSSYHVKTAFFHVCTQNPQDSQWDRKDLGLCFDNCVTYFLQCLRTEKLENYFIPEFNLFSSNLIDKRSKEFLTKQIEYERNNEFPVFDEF
- protocol: Quantification of cGAS protein inhibition (cGAMP formation measured by LC-MS/MS)
- Type: biochemical
- reported conditions: reported for the potential mixture in solution of co-existing tautomers and/or racemates
readout kind: IC50 (nM)

Example cases with answers are listed next.
Q: Identify the measured IC50 of COCC(c1nnc(-c2c(-n3ccnc3)c3cc(OC)c(Cl)c(F)c3n2C)[nH]1)n1ccnc1 (centres unmarked) for human truncated cGAS enzyme (147-522 human cGAS) (Homo sapiens (Human), UniProt Q8N884).
Result: 65

Q: Input "FC(F)Oc1cc2c(-n3ccnc3)c(-c3nnc(C(F)(F)F)[nH]3)[nH]c2cc1Cl"
Result: 659

Q: Record: COCC(c1nnc(-c2c(-n3ccnc3)c3cc(OC)c(Cl)c(F)c3n2C)[nH]1)N(C)C (racemic)
Result: 122

(A) COc1cc2c(-n3ccnc3)c(-c3nnc(C(=O)N(C)C)[nH]3)n(C)c2cc1Cl
(B) Cn1c(-c2nnc(C(F)(F)F)[nH]2)c(-n2ccnc2)c2ccc(Cl)c(C#N)c21
Q: Input pair: A , B . Output: entry with lower IC50. Provide the label of your selected option as the answer.
Result: A

(A) FC(F)(F)c1nnc(-c2[nH]c3cc(Cl)c(Cl)cc3c2-n2ccnc2)[nH]1
(B) COc1cc2c(-n3ccnc3)c(-c3nnc(C(OC)C(F)F)[nH]3)n(C)c2c(F)c1Cl (centres unmarked)
(C) CN[C@H](COC)c1nnc(-c2c(-n3ccnc3)c3cc(OC)c(Cl)c(F)c3n2C)[nH]1 [Example 125b]
Q: Output the entries ranked by IC50 from maximum down to minimum. // ordering of labels required in reply
Result: A, C, B
(A: 564 nM, C: 180 nM, B: 64 nM)

====

- experimental target: human truncated cGAS enzyme (147-522 human cGAS) (Homo sapiens (Human))
- protocol: Quantification of cGAS protein inhibition (cGAMP formation measured by LC-MS/MS)
- Type: biochemical
- reported conditions: reported for the potential mixture of co-existing tautomers and/or racemates
pIC50: −log10 of the molar value.
readout kind: pIC50

Past entries and their recorded results:
Q: I would be grateful if you could share the reported pIC50 for COCCN(C)C(=O)c1nnc(-c2c(-n3ccnc3)c3cc(OC)c(Cl)c(F)c3n2C)[nH]1 [Example 40] .
Result: 7.09

Q: Try this compound next: COc1cc2c(-n3ccnc3)c(-c3nnc(C(=O)N4CCCC(O)C4)[nH]3)n(C)c2c(F)c1Cl (stereo not drawn) [Example 45]
Result: 7.25

Q: # repeat for COCC(O)c1nnc(-c2c(-c3cn[nH]c3)c3cc(OC)c(Cl)c(F)c3n2C)[nH]1 (stereo not drawn) [Example 64]
Result: 7.28

Q: Follow-up entry: N#Cc1c(Cl)ccc2c(-c3cn[nH]c3)c(-c3nnc(C(F)(F)F)[nH]3)[nH]c12 [Example 19]
Result: 6.82

Q: Same question for COc1cc2c(-c3cn[nH]c3)c(-c3nnc(C(N)=O)[nH]3)[nH]c2cc1Cl [Example 31] please.
Result: 7.31

Q: What would you report for COc1cc2c(-n3ccnc3)c(-c3n[nH]c(C(CO)OC)n3)n(C)c2c(F)c1Cl (stereo not drawn) [Example 93] ?
Result: 7.22

Q: Also check COc1cc2c(-c3cn[nH]c3)c(-c3nnc(C(C)(F)F)[nH]3)[nH]c2c(F)c1Cl [Example 67]
Result: 7.52

Q: // same read-out, input: FC(F)(F)c1nnc(-c2cc3c(Cl)c(Cl)ccc3n2-c2cn[nH]c2)[nH]1 [Example 32]
Result: 6.30

(1) COCC(c1nnc(-c2c(-c3cn[nH]c3)c3cc(OC)c(Cl)c(F)c3n2C)[nH]1)N(C)C (stereo not drawn) [Example 81]
(2) COc1cc2c(-c3cn[nH]c3)c(-c3nnc(C(C)=O)[nH]3)n(C)c2c(F)c1Cl [Example 60]
Q: Record comparison, field pIC50: mark the lower of 1 and 2 . Write the label of whichever entry you select.
Result: 1
(1: 7.04, 2: 7.49)

====

- experimental target: human truncated cGAS enzyme (147-522 human cGAS) (Homo sapiens (Human))
- protocol: Quantification of cGAS protein inhibition (cGAMP formation measured by LC-MS/MS)
- Assay type: biochemical
- reported conditions: reported for the potential mixture of co-existing tautomers and/or racemates
pIC50: −log10 of the molar value.
readout kind: pIC50

Consider the worked cases shown below.
Q: Recall the recorded pIC50 for "Fc1ccc2c(-c3cn[nH]c3)c(-c3nnc(C(F)(F)F)[nH]3)[nH]c2c1F" with human truncated cGAS enzyme (147-522 human cGAS) (Homo sapiens (Human)) and state it.
Result: 6.71

Q: Input "COc1cc2c(-n3ccnc3)c(-c3nnc(C(=O)N(C)CCO)[nH]3)n(C)c2c(F)c1Cl"
Result: 7.21

Q: Field entry: "COc1cc2c(-n3ccnc3)c(-c3nnc(OC(C)C)[nH]3)n(C)c2c(F)c1Cl"
Result: 7.04

Q: Try COc1cc2c(-c3cn[nH]c3)c(-c3nnc(C(C)F)[nH]3)n(C)c2c(F)c1Cl (stereo not shown) next.
Result: 7.21

Q: Check "COCC(=O)c1nnc(-c2[nH]c3c(Cl)c(Cl)ccc3c2-c2cn[nH]c2)[nH]1" too.
Result: 7.52

Q: Okay, and "COCC(=O)c1nnc(-c2c(-n3ccnc3)c3cc(OC)c(Cl)c(F)c3n2C)[nH]1" ?
Result: 7.12

Q: And then "COCCc1nnc(-c2c(-n3ccnc3)c3cc(OC)c(Cl)c(F)c3n2C)[nH]1" , what is it?
Result: 6.69

Q: Same read-out for "Fc1c(Cl)ccc2c(-c3cn[nH]c3)c(-c3nnc(C(F)(F)F)[nH]3)[nH]c12" ?
Result: 7.36

Q: Here is the next compound: "Cn1c(-c2nnc(C(F)(F)F)[nH]2)c(-c2cn[nH]c2)c2cc(C#N)c(Cl)c(F)c21"
Result: 6.87

Q: Moving on to the next compound: "COc1cc2c(-n3ccnc3)c(-c3nnc(C(=O)N4CCOCC4)[nH]3)n(C)c2c(F)c1Cl"
Result: 7.20

(1) COc1cc2c(-n3ccnc3)c(-c3nnc(C(=O)N4CCC(O)C4)[nH]3)n(C)c2c(F)c1Cl (stereo not shown)
(2) COc1cc2c(-c3cn[nH]c3)c(-c3nnc(C(C)N(C)C)[nH]3)n(C)c2c(F)c1Cl (stereo not shown)
(3) CCOc1cc2c(-c3cn[nH]c3)c(-c3nnc(C(C)=O)[nH]3)n(C)c2c(F)c1Cl
(4) Oc1cc(-c2c(-c3nnc(C(F)(F)F)[nH]3)[nH]c3c(Cl)c(Cl)ccc23)no1
Q: Would you mind ranking these compounds by ascending pIC50? Show the ranking through the labels, in the order asked for.
Result: 4, 3, 1, 2
(4: 5.73, 3: 6.68, 1: 7.21, 2: 7.41)

====

- experimental target: human truncated cGAS enzyme (147-522 human cGAS) (Homo sapiens (Human))
- protocol: Quantification of cGAS protein inhibition (cGAMP formation measured by LC-MS/MS)
- Assay type: biochemical
- reported conditions: reported for the potential mixture of co-existing tautomers and/or racemates
readout kind: IC50 (nM)

// below: answered molecules
Q: I am curious: what IC50 value has been reported for "COc1c(Cl)ccc2c(-c3cn[nH]c3)c(-c3nnc(C(F)(F)F)[nH]3)[nH]c12" ?
Result: 1490

Q: Entry "Clc1ccc2c(-c3cn[nH]c3)c(-c3nnc(Br)[nH]3)[nH]c2c1Cl" please
Result: 93

Q: What about "COc1cc2c(-n3ccnc3)c(-c3nnc(N4CC[C@H](O)C4)[nH]3)n(C)c2c(F)c1Cl" ?
Result: 81

(a) COc1cc2c(-n3ccnc3)c(-c3nnc(C(F)(F)F)[nH]3)[nH]c2c(F)c1Cl
(b) COc1cc2c(-c3cn[nH]c3)c(-c3nnc(C(C)F)[nH]3)[nH]c2c(F)c1Cl (stereo not shown)
(c) Cn1c(-c2nnc(C(F)(F)F)[nH]2)c(-c2cn[nH]c2)c2cc(Cl)c(Cl)cc21
(d) Oc1cc(-c2c(-c3nnc(C(F)(F)F)[nH]3)[nH]c3c(Cl)c(Cl)ccc23)n[nH]1
(e) COC(=O)Cc1nnc(-c2[nH]c3c(Cl)c(Cl)ccc3c2-c2cn[nH]c2)[nH]1
Q: # rank by IC50, ascending (min first) Provide the labels, sequenced as the question asks.
Result: b, a, c, e, d

(A) COc1cc2c(-n3ccnc3)c(-c3nnc(C(=O)N4CCC(O)CC4)[nH]3)n(C)c2c(F)c1Cl
(B) COc1cc2c(-c3cn[nH]c3)c(-c3nnc(C(F)(F)CO)[nH]3)n(C)c2c(F)c1Cl
Q: Between the two listed entries A and B , which has its IC50 at the higher number? Please respond with the label that marks your chosen entry.
Result: A

# credit: patent US12404261B2
